biological target: T1, Cynomolgus monkey BCMA (cynomolgus monkey); assay: SPR, IgG immobilised, cyno BCMA analyte
T1 construct: Soluble analyte in SPR; also called cyBCMA; Cyno BCMA
OUTCOME MEASURE: koff (s⁻¹)
Give the quantity in s⁻¹, number only.

Known koff results, listed for orientation:
BINDER | koff [s⁻¹]
COMBO_Rd4_0.6nM_C04 (antibody, V domains shown, IgG) VH: EVQLLESGGGLVQPGGSLRLSCAASGFTFSSYPMSWVRQAPGKGLEWVSAHIGSGGSTYYADSVKGRFTISRDNSKNTLYLQMNSLRAEDTAVYYCARYWPMDSWGQGTLVTVSS VL: EIVLTQSPGTLSLSPGERATLSCRASQSVSSTYLAWYQQKPGQAPRLLMYDASIRATGIPDRFSGSGSGTDFTLTISRLEPEDFAVYYCQQYQSWPLTFGQGTKVEIK | 0.000137
COMBO_Rd4_0.6nM_C17 (antibody, V domains shown, IgG) VH: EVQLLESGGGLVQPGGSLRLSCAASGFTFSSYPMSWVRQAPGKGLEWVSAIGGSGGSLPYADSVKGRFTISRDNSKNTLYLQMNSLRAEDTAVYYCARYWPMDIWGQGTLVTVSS VL: EIVLTQSPGTLSLSPGERATLSCRASQGISSTYLAWYQQKPGQAPRLLMYDASIRATGIPDRFSGSGSGTDFTLTISRLEPEDFAVYYCQQYAYWPLTFGQGTKVEIK | 0.00101

Now examine the next entry.
Query: Consider the binder COMBO_Rd4_6nM_C21 (antibody, V domains shown, IgG) VH: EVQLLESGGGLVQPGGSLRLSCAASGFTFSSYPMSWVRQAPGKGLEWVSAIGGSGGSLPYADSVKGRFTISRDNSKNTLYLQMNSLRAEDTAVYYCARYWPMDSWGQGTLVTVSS VL: EIVLTQSPGTLSLSPGERATLSCRASQSVSAAYLAWYQQKPGQAPRLLMYDASIRATGIPDRFSGSGSGTDFTLTISRLEPEDFAVYYCQQYMCWPLTFGQGTKVEIK and give its recorded koff.
Result: 0.000248
